# assayedTarget: T1, alpha-s1 casein from Bos taurus
# T1 chain: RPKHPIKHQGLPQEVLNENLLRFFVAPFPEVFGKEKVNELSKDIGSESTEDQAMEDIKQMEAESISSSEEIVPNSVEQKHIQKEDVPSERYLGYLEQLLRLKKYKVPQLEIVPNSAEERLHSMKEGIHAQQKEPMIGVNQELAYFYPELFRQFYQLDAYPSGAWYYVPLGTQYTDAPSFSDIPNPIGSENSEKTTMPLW
Overview of recorded αs1 CN, 24 hours, 11° C. for various proteins
Provide only the numeric value, understood in Volume.

protein | αs1 CN, 24 hours, 11° C. (Volume)
camel chymosin variant #159 (L295I) (protein) GKVAREPLTSYLDSQYFGKIYIGTPPQEFTVVFDTGSSDLWVPSIYCKSNVCKNHHRFDPRKSSTFRNLGKPLSIHYGTGSMEGFLGYDTVTVSNIVDPNQTVGLSTEQPGEVFTYSEFDGILGLAYPSLASEYSVPVFDNMMDRHLVARDLFSVYMDRNGQGSMLTLGAIDPSYYTGSLHWVPVTLQQYWQFTVDSVTINGVAVACVGGCQAILDTGTSVLFGPSSDILKIQMAIGATENRYGEFDVNCGNLRSMPTVVFEINGRDYPLSPSAYTSKDQGFCTSGFQGDNNSEIWILGDVFIREYYSVFDRANNRVGLAKAI | 1.11e+07

Please look at the following protein next.
Lookup: Input camel chymosin variant #144 (F223Y) (protein) GKVAREPLTSYLDSQYFGKIYIGTPPQEFTVVFDTGSSDLWVPSIYCKSNVCKNHHRFDPRKSSTFRNLGKPLSIHYGTGSMEGFLGYDTVTVSNIVDPNQTVGLSTEQPGEVFTYSEFDGILGLAYPSLASEYSVPVFDNMMDRHLVARDLFSVYMDRNGQGSMLTLGAIDPSYYTGSLHWVPVTLQQYWQFTVDSVTINGVAVACVGGCQAILDTGTSVLYGPSSDILKIQMAIGATENRYGEFDVNCGNLRSMPTVVFEINGRDYPLSPSAYTSKDQGFCTSGFQGDNNSELWILGDVFIREYYSVFDRANNRVGLAKAI , output reported αs1 CN, 24 hours, 11° C..
Found: 8.4e+06
